Each recorded value in this set is attributed to patent US20180244758A1.

Molecular target: T1, TAFV GP on VSV pseudotype particles (Tai Forest virus (TAFV), UniProt Q66810 33-676)
T1 sequence: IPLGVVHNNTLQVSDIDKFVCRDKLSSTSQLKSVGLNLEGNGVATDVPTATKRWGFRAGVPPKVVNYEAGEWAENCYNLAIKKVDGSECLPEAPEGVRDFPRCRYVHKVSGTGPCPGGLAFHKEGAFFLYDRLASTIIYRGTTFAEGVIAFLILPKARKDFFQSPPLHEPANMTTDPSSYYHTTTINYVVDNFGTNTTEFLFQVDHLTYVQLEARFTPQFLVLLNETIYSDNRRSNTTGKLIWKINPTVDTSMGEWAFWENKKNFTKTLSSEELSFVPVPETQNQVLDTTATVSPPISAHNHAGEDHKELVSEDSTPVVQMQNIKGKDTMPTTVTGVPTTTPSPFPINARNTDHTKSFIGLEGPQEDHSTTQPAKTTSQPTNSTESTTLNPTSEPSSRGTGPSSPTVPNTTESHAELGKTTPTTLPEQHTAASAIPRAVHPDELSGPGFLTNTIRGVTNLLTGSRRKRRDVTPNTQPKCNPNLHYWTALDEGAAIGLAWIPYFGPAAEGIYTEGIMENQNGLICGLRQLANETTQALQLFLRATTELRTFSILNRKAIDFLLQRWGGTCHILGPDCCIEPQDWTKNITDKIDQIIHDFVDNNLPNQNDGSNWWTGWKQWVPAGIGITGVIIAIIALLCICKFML
Assay: cell-based or functional assay

- Binder: "mAb PE-16 (antibody, V domains shown) VH: QVQLVQSGAEVTKPGASVKVSCKASGYTFTTYYMHWVRQAPGQGLEWVGIINPSGGITRYAQKFQGRVTLTRDTSTTTVYMELSSLRSEDTAVYYCARDRYPVLFATDYGMDVWGQGTTVTVSS VL: DIVMTQSPATLSLSPGERATLSCRASQSVSGYLAWYQQKPGQAPRLLIYDASNRATGIPARFSGSGSGTDFTLTISSLEPEDFAVYYCQQRSIWPPGVTFGGGTKVEIK"
  Neutralization (VSV-GP IC50, nM): 4.8
- Binder: "mAb PE-24 (antibody, V domains shown) VH: EVQLVESGGGLVQPGGSLRLSCAASGFTFSSYAMSWVRQAPGKGLEWVSEISGLGGSTYYADSAKGRFTISRDNSKSTLYLQMNSLRAEDTAVYYCAKDHRVWAPGYYFDHWGQGTLVTVSS VL: DIVLTQSPSTLSASVGDRVTITCRASQSISSWLAWYQQKPGKAPKLLIYDASSLESGVPSRFSGSGSGTEFTLTISSLQPDDFATYFCQQYNRSPTFGGGTKVEIK"
  Neutralization (VSV-GP IC50, nM): 1.5
- Binder: "mAb PE-87 (antibody, V domains shown) VH: QVQLVQSGVTLVQPGGSLRVSCAASGFTFSSYAMSWVRQAPGKGLEWVSAISGLGGSTYYADSVKGRFTISRDNSKNTLYLQMNSLRAEDTAVYYCAKDHRVWAAGYHFDYWGQGALVTVSS VL: DIVLTQSPSTLSASVGDRVTITCRASQSISSWLAWYQQKPGEAPKLLISDASSLESGVPSRFSGSGSGTEFTLTISSLQPDDFATYYCQQYYSSPTFGGGTKVEIK"
  Neutralization (VSV-GP IC50, nM): 1
- Binder: "mAb PE-47 (antibody, V domains shown) VH: EVQLVESGGGLVKPGGSLRLSCAASGFTFSNAWMSWVRQAPGEGLEWVGRIKSKTDGGTIDYAAPVKGRFTISRDDSKNTVYLQMTSLKTEDTAVYYCTTYTEDMQYFDWLLRGGETFDYWGQGTLVTVSS VL: DIQMTQSPSSLSASVGDRVTITCRASQYISTYLNWYQQKPGKAPKLLIYAAYNLQSGVPSRFSGSGSGTDFTLTISSLQPEDFATYYCQQSYSTPGRYTFGQGTKVEIK"
  Neutralization (VSV-GP IC50, nM): 6.1
